Measured T/C, listed per entry for reference.
- Test system: CD2F1 mice, L1210 leukemia ip, survival T/C
- assay_overview: NCI In Vivo Anticancer Drug Screen. Data for tumor model L1210 Leukemia (intraperitoneal) in CD2F1 (CDF1) mice
- condition_parameters: endpoint: mean survival time; dose: 50.0 mg/kg/injection; schedule: Q04DX003 (ip); vehicle: saline; higher = longer survival
Toxic doses and inconclusive results are not listed.
reported_property: T/C

* Cc1c2ccncc2c(C)c2c1[nH]c1ccc(Br)cc12 | 101 % of control
* CC(=O)C(Cl)C(C)=O.CC(=O)C(Cl)C(C)=O.CO.CO.[Ni] | 108 % of control
* Cc1ccc(S(=O)(=O)OCC2CC=CCC2COS(=O)(=O)c2ccc(C)cc2)cc1 (stereo not given) | 102 % of control
* CN1CC=C(N2CCOCC2)CC1 | 103 % of control
* CN1CCCN(C(=S)S)CC1 | 103 % of control
